B1: PTPN9 (parent)
chain: IDFLRVVRNQQSLAVSNMGARSKG

Variants of: B1
Test Name: protein stability index of a GFP-peptide fusion (GPS, HEK-293T) (PSI 1-6); higher = more stable;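 further: lentivirally expressed fusions sorted by FACS into six bins by GFP to DsRed ratio, PSI derived from sequencing read proportions per bin multiplied by bin number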
Measurement Parameters: c terminus: a fixed tail appended
# protein stability index annotations
Readout Kind: protein stability index

variant_designation=L4K readout_kind="protein stability index" numeric_readout=3.25
variant_designation=G19D readout_kind="protein stability index" numeric_readout=2.35
variant_designation=M18F readout_kind="protein stability index" numeric_readout=2
variant_designation=D2T readout_kind="protein stability index" numeric_readout=2.05
variant_designation=S16L readout_kind="protein stability index" numeric_readout=1.89
variant_designation=R21N readout_kind="protein stability index" numeric_readout=2.65
variant_designation=K23V readout_kind="protein stability index" numeric_readout=1.72
variant_designation=L4I readout_kind="protein stability index" numeric_readout=1.69
variant_designation=A14T readout_kind="protein stability index" numeric_readout=2.64
variant_designation=Q11W readout_kind="protein stability index" numeric_readout=1.34
variant_designation=V6W readout_kind="protein stability index" numeric_readout=2.74
variant_designation=S16Y readout_kind="protein stability index" numeric_readout=2.38
variant_designation=F3M readout_kind="protein stability index" numeric_readout=2.75
variant_designation=R5K readout_kind="protein stability index" numeric_readout=2.39
variant_designation=V6S readout_kind="protein stability index" numeric_readout=3.36
variant_designation=M18P readout_kind="protein stability index" numeric_readout=2.57
variant_designation=R8C readout_kind="protein stability index" numeric_readout=2.27
variant_designation=Q10D readout_kind="protein stability index" numeric_readout=2.63
variant_designation=R21F readout_kind="protein stability index" numeric_readout=2.45
variant_designation=V7K readout_kind="protein stability index" numeric_readout=2.66
variant_designation=N9H readout_kind="protein stability index" numeric_readout=2.57
variant_designation=D2P readout_kind="protein stability index" numeric_readout=2.54
variant_designation=L4N readout_kind="protein stability index" numeric_readout=3.48
variant_designation=Q10W readout_kind="protein stability index" numeric_readout=2.02
variant_designation=K23T readout_kind="protein stability index" numeric_readout=1.32
variant_designation=N17K readout_kind="protein stability index" numeric_readout=2.24
variant_designation=S16N readout_kind="protein stability index" numeric_readout=2.52
variant_designation=R21T readout_kind="protein stability index" numeric_readout=1.66
variant_designation=V7S readout_kind="protein stability index" numeric_readout=3.61
variant_designation=S22R readout_kind="protein stability index" numeric_readout=2.64
variant_designation=V7F readout_kind="protein stability index" numeric_readout=1.84
variant_designation=Q11G readout_kind="protein stability index" numeric_readout=2.35
variant_designation=A20V readout_kind="protein stability index" numeric_readout=2.42
variant_designation=S16H readout_kind="protein stability index" numeric_readout=2.15
variant_designation=L4W readout_kind="protein stability index" numeric_readout=1.72
variant_designation=K23M readout_kind="protein stability index" numeric_readout=1.91
variant_designation=S12Q readout_kind="protein stability index" numeric_readout=2.02
variant_designation=F3C readout_kind="protein stability index" numeric_readout=3.89
variant_designation=R21D readout_kind="protein stability index" numeric_readout=2.54
variant_designation=S16W readout_kind="protein stability index" numeric_readout=1.46
variant_designation=V6I readout_kind="protein stability index" numeric_readout=1.99
variant_designation=S12Y readout_kind="protein stability index" numeric_readout=1.8
variant_designation=R21G readout_kind="protein stability index" numeric_readout=3.16
variant_designation=F3Y readout_kind="protein stability index" numeric_readout=2.4
variant_designation=N17V readout_kind="protein stability index" numeric_readout=2
variant_designation=L13I readout_kind="protein stability index" numeric_readout=2.31
variant_designation=V7T readout_kind="protein stability index" numeric_readout=2.98
variant_designation=N17D readout_kind="protein stability index" numeric_readout=2.63
variant_designation=S22Y readout_kind="protein stability index" numeric_readout=2.16
variant_designation=N17M readout_kind="protein stability index" numeric_readout=1.65
variant_designation=L13A readout_kind="protein stability index" numeric_readout=2.73
variant_designation=S12W readout_kind="protein stability index" numeric_readout=1.69
variant_designation=G19K readout_kind="protein stability index" numeric_readout=2.58
variant_designation=L13C readout_kind="protein stability index" numeric_readout=2.14
variant_designation=N17L readout_kind="protein stability index" numeric_readout=2.22
variant_designation=V6T readout_kind="protein stability index" numeric_readout=3.23
variant_designation=I1Q readout_kind="protein stability index" numeric_readout=4.35
variant_designation=V6H readout_kind="protein stability index" numeric_readout=2.67
variant_designation=L4A readout_kind="protein stability index" numeric_readout=3.04
variant_designation=Q11S readout_kind="protein stability index" numeric_readout=2.31
variant_designation=V7A readout_kind="protein stability index" numeric_readout=3.7
variant_designation=V7G readout_kind="protein stability index" numeric_readout=2.96
variant_designation=M18T readout_kind="protein stability index" numeric_readout=3.23
variant_designation=R21E readout_kind="protein stability index" numeric_readout=2.3
variant_designation=Q10T readout_kind="protein stability index" numeric_readout=2.4
variant_designation=F3T readout_kind="protein stability index" numeric_readout=4.5
variant_designation=V7Y readout_kind="protein stability index" numeric_readout=2.23
variant_designation=N17P readout_kind="protein stability index" numeric_readout=2.27
variant_designation=I1M readout_kind="protein stability index" numeric_readout=2.96
variant_designation=V7D readout_kind="protein stability index" numeric_readout=3.16
variant_designation=V6Q readout_kind="protein stability index" numeric_readout=2.8
variant_designation=S22F readout_kind="protein stability index" numeric_readout=2.24
variant_designation=L4Q readout_kind="protein stability index" numeric_readout=3.37
variant_designation=G24R readout_kind="protein stability index" numeric_readout=2.48
variant_designation=Q10M readout_kind="protein stability index" numeric_readout=2.54
variant_designation=N9G readout_kind="protein stability index" numeric_readout=2.3
variant_designation=D2Q readout_kind="protein stability index" numeric_readout=1.88
variant_designation=V15S readout_kind="protein stability index" numeric_readout=2.49
variant_designation=S22G readout_kind="protein stability index" numeric_readout=2.27
variant_designation=I1S readout_kind="protein stability index" numeric_readout=3.1
variant_designation=N17E readout_kind="protein stability index" numeric_readout=3.08
variant_designation=V15Q readout_kind="protein stability index" numeric_readout=2.79
variant_designation=L4P readout_kind="protein stability index" numeric_readout=3.86
variant_designation=G24W readout_kind="protein stability index" numeric_readout=1.76
variant_designation=K23D readout_kind="protein stability index" numeric_readout=2.36
variant_designation=L4G readout_kind="protein stability index" numeric_readout=3.69
variant_designation=A20R readout_kind="protein stability index" numeric_readout=2.47
variant_designation=A14K readout_kind="protein stability index" numeric_readout=2.13
variant_designation=G24N readout_kind="protein stability index" numeric_readout=2.46
variant_designation=V6L readout_kind="protein stability index" numeric_readout=2.5
variant_designation=N9I readout_kind="protein stability index" numeric_readout=1.67
